# measured.on: Protein Rev (Human immunodeficiency virus type 1 group M subtype B (isolate WMJ22))
# run.description: HIV-1 Rev-RRE binding inhibitors, retest, confirmation, biochemical, FRET, acceptor and relative FRET calls (AID 837);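 note: relative FRET combines rise in Cy5 acceptor with fall in fluorescein donor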
# condition.notes: Fl-Rev peptide / Cy5-RRE RNA FRET, 1536-well; at 8 µM
Active and inactive are the calls of the source.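 Rule for the calls: active = relative FRET score above 0.01, or acceptor fluorescence over 30% below the sample-well median; inactive = the rest.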
Lab note: assign the record to one of true = active, false = inactive

Record excerpt, results attached:
>>> class("CCN(CC)CCn1c(=N)n(CCOc2ccccc2)c2ccccc21")
"false"
>>> class("CCOC(=O)CSc1ccc(S(=O)(=O)N(C)C2CCCCC2)cc1[N+](=O)[O-]")
"false"

// return assay outcome for CC(C)c1ccc(CNCc2ccccc2)cc1
false

// return assay outcome for CCN(CC)CCOc1cc2c(nn1)Oc1ccccc1N2C
false

// return assay outcome for COc1ccc2nc(NC(=O)c3ccc(Br)s3)sc2c1
false

// return assay outcome for O=c1[nH]c(Nc2ccc(F)cc2)cc2ccccc12
false

// return assay outcome for COc1ccccc1Nc1nc(N)nc(CN(C)C2CCCCC2)n1
false

// return assay outcome for CN(C)CCNCc1ccccc1OC1CCCC1
false

// return assay outcome for CCN(CC)CCCNC(=O)c1cc(-c2ccc(Cl)cc2)on1
false

// return assay outcome for CC1=NOC(=O)/C1=C/c1ccc(N(C)C)cc1
true

// return assay outcome for C[n+]1c2n(c3ccccc31)N=C(c1ccc(Cl)cc1)CS2
true

// return assay outcome for CCOC(=O)c1c(C)n(C)c2ccc(O)c(CN(C)C)c12
true

// return assay outcome for Cc1ccc2[nH]c(=O)c3cc(C(=O)NCCN4CCN(C)CC4)sc3c2c1
false

// return assay outcome for CC(NCc1ccc(N(C)C)cc1)C1CC2CCC1C2 (stereo not given)
true

// return assay outcome for NCCCCCc1nnc(SC/C=C/c2ccccc2)o1
false

// return assay outcome for COC(CNc1cc(=O)oc2ccccc12)OC
false

// return assay outcome for COc1cccc(Nc2nc(N)nc(-c3oc4ccccc4c3C)n2)c1
true

// return assay outcome for Cn1nc(SCC(=O)O)sc1=S
false

// return assay outcome for CCOC(=O)[C@@H]1CCNC[C@@H]1c1ccccc1
false

// return assay outcome for CC(C)(c1ccccc1)c1ccc(OCCCNCCO)cc1
false

// return assay outcome for Cc1occc1C(=O)Nc1sc2c(c1C(N)=O)CCC(C(C)(C)C)C2 (stereo not given)
false

// return assay outcome for Cc1nc(NC(=O)c2ccc(Br)o2)sc1C
false

====

# measured.on: Protein Rev (Human immunodeficiency virus type 1 group M subtype B (isolate WMJ22)) (UniProt P05866)
# Sequence (P05866 whole entry, looked up): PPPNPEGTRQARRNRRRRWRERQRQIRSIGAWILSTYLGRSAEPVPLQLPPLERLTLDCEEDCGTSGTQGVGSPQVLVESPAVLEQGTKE
# run.description: HIV-1 Rev-RRE binding inhibitors, retest, confirmation, biochemical, FRET, acceptor and relative FRET calls (AID 837);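 note: relative FRET combines rise in Cy5 acceptor with fall in fluorescein donor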
# condition.notes: Fl-Rev peptide / Cy5-RRE RNA FRET, 1536-well; at 8 µM
Active and inactive are the calls of the source.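 How the source made its calls: active means relative FRET score above 0.01, or acceptor fluorescence over 30% below the sample-well median; inactive means the rest.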
measurement.kind: outcome

>>> reported_measurement("CCCn1c(=N)c(C(=O)NCc2ccc3c(c2)OCO3)cc2c(=O)n3cccc(C)c3nc21")
"inactive"
>>> reported_measurement("COc1ccc(Nc2nc(N3CCCCC3)c3ccccc3n2)cc1")
"inactive"
>>> reported_measurement("CCCCCCCCNc1ncnc2ccccc12")
"inactive"
>>> reported_measurement("O=C(NCCCO)Nc1ccc2nc(-c3ccco3)c(-c3ccco3)nc2c1")
"inactive"

====

# measured.on: Protein Rev (Human immunodeficiency virus type 1 group M subtype B (isolate WMJ22)) (UniProt P05866)
# run.description: HIV-1 Rev-RRE binding inhibitors, retest, confirmation, biochemical, FRET, acceptor and relative FRET calls (AID 837);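 note: relative FRET combines rise in Cy5 acceptor with fall in fluorescein donor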
# condition.notes: Fl-Rev peptide / Cy5-RRE RNA FRET, 1536-well; at 8 µM
Calls of active or inactive are those of the source.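 The calls were made as follows: active = relative FRET score above 0.01, or acceptor fluorescence over 30% below the sample-well median; inactive = the rest.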
measurement.kind: outcome

>>> reported_measurement("O=[N+]([O-])c1ccc2nc(-c3ccc(Cl)cc3)n(OCc3ccccc3)c2c1")
"inactive"
>>> reported_measurement("CN=C1c2cc3cc(OC)ccc3n2CCN1Cc1ccccc1")
"inactive"
>>> reported_measurement("CN1/C(=C\\C=Nc2ccc3ccccc3c2)C(C)(C)c2ccccc21")
"inactive"
